The molecules listed here are annotated with their clearance.
# assayDetails: Clearance in iv dosed rat
# Type: ADME, organism-based
# conditions: in vivo
Answer with the figure and its unit, nothing else.

structureString | clearance
CN(CC(=O)Nc1ccc(Oc2ccccc2)cc1)C[C@H]1CCCN1Cc1ccc(C(=O)O)cc1 | 28 mL/min/kg

Note: attention shifts to another entry.
Q: Quick one: clearance of "CN(CCCN(C)Cc1ccc(C(=O)O)cc1)CC(=O)Nc1ccc(Oc2ccccc2)cc1" ?
Ans: 38 mL/min/kg

----------
# testedOn: Leukotriene A-4 hydrolase (Homo sapiens, UniProt P09960)
# Sequence (P09960 whole entry): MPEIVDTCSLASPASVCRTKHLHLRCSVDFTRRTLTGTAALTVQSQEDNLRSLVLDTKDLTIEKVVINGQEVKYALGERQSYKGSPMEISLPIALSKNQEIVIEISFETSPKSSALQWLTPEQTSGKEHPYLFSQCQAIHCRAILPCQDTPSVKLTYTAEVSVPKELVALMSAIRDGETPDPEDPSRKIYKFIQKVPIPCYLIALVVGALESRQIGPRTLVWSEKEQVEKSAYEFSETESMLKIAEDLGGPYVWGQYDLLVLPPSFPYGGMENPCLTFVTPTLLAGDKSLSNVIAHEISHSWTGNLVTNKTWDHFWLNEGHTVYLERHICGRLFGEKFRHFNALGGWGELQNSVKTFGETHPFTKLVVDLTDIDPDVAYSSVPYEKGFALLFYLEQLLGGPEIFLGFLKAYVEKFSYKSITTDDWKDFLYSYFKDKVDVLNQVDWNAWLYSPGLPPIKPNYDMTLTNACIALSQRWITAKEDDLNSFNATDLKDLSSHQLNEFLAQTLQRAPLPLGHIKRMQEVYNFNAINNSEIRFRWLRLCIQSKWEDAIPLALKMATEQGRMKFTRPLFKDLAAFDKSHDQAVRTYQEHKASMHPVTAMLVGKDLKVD
pIC50: −log10 of the molar value.
Classification field: met = pIC50 at or over 8; not met = pIC50 under 8.

The following molecules have reported results that may help.
molecule | labelValue
CN(CCCC(=O)O)CCCN(C)CC(=O)Nc1ccc(Oc2ccccc2)cc1 | not met
CN(CC(=O)Nc1ccc(Oc2ccccc2)cc1)C1CCCN(Cc2ccc(C(=O)O)cc2)CC1 (stereo not given) | not met
CN(CCCN(C)Cc1ccc(-c2nnn[nH]2)cc1)CC(=O)Nc1ccc(Oc2ccccc2)cc1 | met
CN(CCCN(C)Cc1ccc(C(=O)O)cc1)CC(=O)Nc1ccc(Cc2ccccc2)cc1 | met
CN(C)CCCN(C)CC(=O)Nc1ccc(Oc2ccccc2)cc1 | not met
CN(CCCN(C)Cc1ccccc1)CC(=O)Nc1ccc(Oc2ccccc2)cc1 | not met

Q: Decide: pIC50 of "CN(CCCN(C)Cc1ccc(C(=O)O)o1)CC(=O)Nc1ccc(Oc2ccccc2)cc1" >= 8?
Ans: not met

Q: Decide: pIC50 of "CN(Cc1ccc(C(=O)O)cc1)C1CCN(CC(=O)Nc2ccc(Oc3ccccc3)cc2)CC1" >= 8?
Ans: not met

Q: Decide: pIC50 of "O=C(CN1CCN(Cc2ccc(C(=O)O)cc2)CC1)Nc1ccc(Oc2ccccc2)cc1" >= 8?
Ans: not met
